Exercise: for every item that follows, state its recorded EC50.
Biological target: UniProt P08173
Sequence (P08173 whole entry): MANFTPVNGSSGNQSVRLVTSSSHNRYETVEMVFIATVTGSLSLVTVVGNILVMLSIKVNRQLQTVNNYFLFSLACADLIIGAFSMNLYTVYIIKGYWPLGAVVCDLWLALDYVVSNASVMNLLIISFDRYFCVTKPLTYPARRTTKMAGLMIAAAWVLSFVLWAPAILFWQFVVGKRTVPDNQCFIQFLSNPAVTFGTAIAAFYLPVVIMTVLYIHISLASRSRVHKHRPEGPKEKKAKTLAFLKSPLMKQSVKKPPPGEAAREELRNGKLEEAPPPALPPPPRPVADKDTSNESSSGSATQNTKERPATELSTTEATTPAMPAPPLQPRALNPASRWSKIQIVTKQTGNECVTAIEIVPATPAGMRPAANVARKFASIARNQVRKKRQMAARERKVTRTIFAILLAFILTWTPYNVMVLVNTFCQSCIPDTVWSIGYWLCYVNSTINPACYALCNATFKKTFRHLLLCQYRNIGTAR
Experiment: M4 GTPγS PAM assay (CHO-K1 membranes, 35S-GTP binding, with EC20 acetylcholine)
Conditions: with EC20 acetylcholine (40 nM)

{"compound": "Cc1cc(=O)n(C)c2c1CN(C(=O)CC1CN(c3cc(F)cc(F)c3)C1)C2 [Compound I-36]", "EC50": "< 50 nM"}
{"compound": "Cc1c2c(n(C)c(=O)c1C)CN(C(=O)CC1CN(c3ccc(C#N)cc3)C1)C2 [Compound I-45]", "EC50": "< 50 nM"}
{"compound": "Cc1cc(=O)n(C)c2c1CN(C(=O)CC1CN(c3ccnc(C4CC4)c3)C1)C2 [Compound I-22]", "EC50": "200 to 1000 nM"}
{"compound": "Cc1cc(=O)n(C)c2c1CN(C(=O)CC1CN(c3cnn(C(F)(F)F)c3)C1)C2 [Compound I-34]", "EC50": "> 1000 nM"}
{"compound": "Cc1cc(=O)n(C)c2c1CN(C(=O)CC1CN(c3cc(F)cc(C4CC4)c3)C1)C2 [Compound I-4]", "EC50": "< 50 nM"}

Give EC50 for each listed item.
1. Cc1c2c(n(C)c(=O)c1C)CN(C(=O)CC1CN(c3ccc(F)c(OC4CC4)c3)C1)C2 [Compound I-63]
2. Cc1cc(=O)n(C)c2c1CN(C(=O)CC1CN(c3cccc(F)c3C)C1)C2 [Compound I-33]
3. Cc1cc(=O)n(C)c2c1CN(C(=O)CC1CN(c3nc(C(F)(F)F)ns3)C1)C2 [Compound I-28]
4. Cc1c2c(n(C)c(=O)c1C)CN(C(=O)CC1CN(c3cc(F)cc(F)c3)C1)C2 [Compound I-56]

Resp:
1. < 50 nM
2. 200 to 1000 nM
3. 200 to 1000 nM
4. 50 to 200 nM

Give EC50 for each listed item.
1. Cc1c2c(n(C)c(=O)c1Cl)CN(C(=O)CC1CN(c3ncns3)C1)C2 [Compound I-80]
2. COc1cc(N2CC(CC(=O)N3Cc4c(C)cc(=O)n(C)c4C3)C2)cc(C(F)(F)F)n1 [Compound I-39]
3. Cc1cc(=O)n(C)c2c1CN(C(=O)CC1CN(c3ccc(OC(F)(F)F)cc3)C1)C2 [Compound I-12]
4. Cc1cc(=O)n(C)c2c1CN(C(=O)CC1CN(c3ccc(C#N)cc3)C1)C2 [Compound I-17]
5. Cc1c2c(n(C)c(=O)c1C)CN(C(=O)CC1CN(c3ccc(C4CC4)c(F)c3)C1C)C2 (single isomer, unassigned) [Compound I-62]
6. Cc1c2c(n(C)c(=O)c1F)CN(C(=O)CC1CN(c3ccc(C4CC4)c(F)c3)C1)C2 [Compound I-88]
7. Cc1cc(=O)n(C)c2c1[C@@H](C)N(C(=O)CC1CN(c3ccc(C(F)(F)F)cc3)C1)C2 [Compound I-117]
8. Cc1c2c(n(C)c(=O)c1C)CN(C(=O)CC1CN(c3nc(C4CC4)c(C(F)(F)F)s3)C1)C2 [Compound I-65]

Resp:
50 to 200 nM
200 to 1000 nM
50 to 200 nM
50 to 200 nM
200 to 1000 nM
< 50 nM
< 50 nM
< 50 nM

Give EC50 for each listed item.
1. Cc1cc(=O)n(C)c2c1CN(C(=O)CC1CN(c3ccc4c(c3)COC4)C1)C2 [Compound I-16]
2. Cn1c2c(c(C(F)(F)F)cc1=O)CN(C(=O)CC1CN(c3cccnc3)C1)C2 [Compound I-91]
3. Cc1cc(=O)n(C)c2c1CN(C(=O)CC1CN(c3ncc(C(F)(F)F)s3)C1)C2 [Compound I-29]
4. Cc1cc(=O)n(C)c2c1CN(C(=O)CC1CN(c3ncns3)C1)C2 [Compound I-18]

Resp:
1. 200 to 1000 nM
2. > 1000 nM
3. 50 to 200 nM
4. 200 to 1000 nM

Give EC50 for each listed item.
1. COc1cc(N2CC(CC(=O)N3Cc4c(C(F)(F)F)cc(=O)n(C)c4C3)C2)ccn1 [Compound I-92]
2. Cc1cc(=O)n(C)c2c1C(C)N(C(=O)CC1CN(c3ccc(C(F)(F)F)cc3)C1)C2 (centres unmarked) [Compound I-115]
3. Cc1cc(=O)n(C)c2c1CN(C(=O)CC1CN(c3ccnc(OCC4CC4)c3)C1)C2 [Compound I-10]
4. Cc1cc(=O)n(C)c2c1CN(C(=O)CC1CN(c3cnc(C(F)(F)F)cn3)C1)C2 [Compound I-26]
5. Cc1c2c(n(C)c(=O)c1C)CN(C(=O)CC1CN(c3cnc(C4CC4)cn3)C1)C2 [Compound I-58]
6. COc1cccc(N2CC(CC(=O)N3Cc4c(C)cc(=O)n(C)c4C3)C2)c1 [Compound I-7]
7. Cc1c2c(n(CC(F)(F)F)c(=O)c1Cl)CN(C(=O)CC1CN(c3ccncn3)C1)C2 [Compound I-95]

Resp:
> 1000 nM
50 to 200 nM
50 to 200 nM
> 1000 nM
50 to 200 nM
200 to 1000 nM
50 to 200 nM

Give EC50 for each listed item.
1. Cc1c2c(n(C)c(=O)c1C)CN(C(=O)CC1CN(c3ccnc(C(F)(F)F)c3)C1)C2 [Compound I-42]
2. Cc1c2c(n(C)c(=O)c1Cl)CN(C(=O)CC1CN(c3ccc(F)cc3)C1)C2 [Compound I-79]
3. Cc1cc(=O)n(C)c2c1CN(C(=O)CC1CN(c3ccnc(C(F)(F)F)n3)C1)C2 [Compound I-23]
4. Cc1cc(=O)n(C)c2c1[C@H](C)N(C(=O)CC1CN(c3ccc(C(F)(F)F)cc3)C1)C2 [Compound I-116]

Resp:
1: < 50 nM; 2: < 50 nM; 3: 200 to 1000 nM; 4: > 1000 nM
